- Tested on: human A549 lung carcinoma cells
- experimental_protocol: MTT assay (cytotoxicity)
- Type: cell-based
- test_settings: Homo sapiens, treatment for 24 hours, at cell viability of 50%
pIC50: −log10 of the molar value.
measurement_kind: pIC50

The recorded pIC50 for `O=C1C(N2CCCCC2)=C(Cl)C(=O)c2ncccc21` is 5.40 to 5.70

* * *

- System: A549 lung carcinoma cells
- experimental_protocol: Cytoskeleton staining and confocal microscope: cell elongation
- Format: cell-based, human
- test_settings: lung carcinoma cells; comparison of cytoskeleton inhibitors
- Procedure: The cells were cultured on coverslips kept in a p60 Petri dish, and the coverslips were kept in a CO2 incubator for 16-20 hours. After being treated with or without PT-262, the cells were fixed in 4% parafomaldehyde solution for 60 minutes at 37° C. Then the coverslips were washed three times with PBS. The F-actin and β-tubulin were stained with 20 U/ml BODIPY FL phallacidin and anti-β-tubulin Cy3 for 30 minutes at 37° C., respectively. […]
measurement_kind: cell elongation

molecule | measurement_kind | recorded_value
C=C1[C@@H](C)[C@H]2[C@H](Cc3ccccc3)NC(=O)[C@]23OC(=O)/C=C/[C@H](O)CCC[C@@H](C)C/C=C/[C@H]3[C@@H]1O [cytochalasin B, reference compound] | cell elongation | didn't induce
COc1cc2c(c(OC)c1OC)-c1ccc(OC)c(=O)cc1[C@@H](NC(C)=O)CC2 | cell elongation | didn't induce
CC(=O)O[C@H]1C(=O)[C@@]2(C)[C@H]([C@H](OC(=O)c3ccccc3)[C@]3(O)C[C@H](OC(=O)[C@H](O)[C@@H](NC(=O)c4ccccc4)c4ccccc4)C(C)=C1C3(C)C)[C@]1(OC(C)=O)CO[C@@H]1C[C@@H]2O | cell elongation | didn't induce
